Measured values drawn from patent US5371077A for this set.

Tested on: HMG-CoA reductase
assay protocol: Effects of sterols on HMG-CoA reductase activity in CHO-K1 cells
Format: cell-based
measurement setup: 4 hours, sterol concentration 0.1 μM
property name: HMG-CoA reductase activity (% of control activity)

| molecule | result |
| --- | --- |
| C[C@H](CCCC(C)(C)O)[C@H]1CC(=O)C2=C3CC[C@H]4C[C@@H](O)CC[C@]4(C)[C@H]3CC[C@@]21C | 66.4 % of control activity |
| C[C@H](CCC(=O)O)[C@H]1CC(=O)C2=C3CC[C@H]4C[C@@H](O)CC[C@]4(C)[C@H]3CC[C@@]21C | 88.5 % of control activity |
| C[C@H](CCCN(C)C)[C@H]1CC(=O)C2=C3CC[C@H]4C[C@@H](O)CC[C@]4(C)[C@H]3CC[C@@]21C | 87.1 % of control activity |
| C[C@H](CCCC(F)(C(F)(F)F)C(F)(F)F)[C@H]1CC(=O)C2=C3CC[C@H]4C[C@@H](O)CC[C@]4(C)[C@H]3CC[C@@]21C | 68.3 % of control activity |
| CC(C)C(O)CC[C@@H](C)[C@H]1CC(=O)C2=C3CC[C@H]4C[C@@H](O)CC[C@]4(C)[C@H]3CC[C@@]21C (stereo partly drawn) | 63.4 % of control activity |

Attention now turns to another entry.
CC(C)=CCC[C@@H](C)[C@H]1CC(=O)C2=C3CC[C@H]4C[C@@H](O)CC[C@]4(C)[C@H]3CC[C@@]21C on HMG-CoA reductase gives HMG-CoA reductase activity (% of control activity) = 60.5 % of control activity
